B1: Hairpin Ribozyme (parent)
chain: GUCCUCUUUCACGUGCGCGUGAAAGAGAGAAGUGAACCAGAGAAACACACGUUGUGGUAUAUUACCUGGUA

Variants of: B1
Experiment: self-cleavage, relative activity (ratio to wild type); higher = more cleavage; co-transcriptional
I'd be grateful if you could share measured self-cleavage for these entries.
Numbers only.

The cases that follow already have their self-cleavage on record.
>>> recorded_value("GUCCUCUUUGACGUGCGCGUGAAAGAGAUAAGUGAACCAGAGAAACACACGUUGUGGUAUAUUACCUGGUA")
0.136
>>> recorded_value("GUCCUCUUUCACGUGCGCGUGAAAGAGAGAAGUGAACCAGAGAAACCGACGUUGUGGUAUAUUACCUGGUA")
0.0552
>>> recorded_value("GUCCUCUUUCACGUGCGCGUGAAAGAGAGAAGUGAACCAGAAAAACACAGGUUGUGGUAUAUUACCUGGUA")
0.128
>>> recorded_value("GUCCUCUUUCACGUGCGCGUGAAGGAGAGAAGUGAACCAGAGAAACACACAUUGUGGUAUAUUACCUGGUA")
0.745
>>> recorded_value("GUCCUCUUUCACGUGCGCGUGAAAGAGAGAAGUGAAGCAGAGAAACACACGUUGUCGUAUAUUACCUGGUA")
0.176

Would you be so kind as to report self-cleavage for each listed record?
1. GUCCUCUUUCACGUGCGCGUGAAAGAGAGAAGUGAACCAGAGAAACACAUGUUGUGGUAUAUCACCUGGUA
2. GUCCUCUUUCACGUGCGCGUGAAAGAGAGAAGUGAACCAGAGAAACACACGUUGUGAUAUAAUACCUGGUA
3. GGCCACUUUCACGUGCGCGUGAAAGAGAGAAGUGAACCAGAGAAACACACGUUGUGGUAUAUUACCUGGUA

0.217
0.212
0.288

// input: 2 variants below; output: self-cleavage for each
1. GUCCUCUUUCACGUGCGCGUGAAAGAGAGAAGUGAACCAGAGAAACACACGUUGUGGUAUAUUACCUGUCA
2. GUCCUGUUUCACGUGCGCGUGAAAGAGCGAAGUGAACCAGAGAAACACACGUUGUGGUAUAUUACCUGGUA

1: 0.304; 2: 0.145
